target: human Adenosine A1 receptor (Homo sapiens, UniProt P30542); experiment: GTPγS scintillation proximity assay, agonist testing; settings: agonist activity; membrane extracts of CHO-K1 cells expressing recombinant human A1; read-out: A1AR EC50
Sequence (P30542 whole entry): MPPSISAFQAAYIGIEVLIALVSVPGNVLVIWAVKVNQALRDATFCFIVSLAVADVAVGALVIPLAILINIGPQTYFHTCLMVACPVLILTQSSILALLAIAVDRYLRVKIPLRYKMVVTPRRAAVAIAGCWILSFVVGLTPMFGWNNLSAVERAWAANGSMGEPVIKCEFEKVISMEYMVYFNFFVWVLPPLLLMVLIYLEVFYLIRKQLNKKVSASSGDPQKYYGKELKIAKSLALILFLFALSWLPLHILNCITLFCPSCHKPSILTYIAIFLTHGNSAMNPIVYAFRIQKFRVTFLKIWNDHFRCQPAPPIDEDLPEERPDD
MEASUREMENT_KIND: EC50 (µM)

A selection of reference data follows.
EC50 in this record for N#Cc1c(N)nc(SC2CCOCC2)c(C#N)c1-c1ccc(OCCO)cc1 : 0.89

EC50 in this record for COCCOc1ccc(-c2c(C#N)c(SCc3cccnc3)nc(N3CC(O)C3)c2C#N)cc1 : 0.0139

EC50 in this record for COCCOc1ccc(-c2c(C#N)c(SCC3COC3)nc(N3CC(O)C3)c2C#N)cc1 : 0.205

EC50 in this record for COCCOc1ccc(-c2c(C#N)c(N)nc(CCc3cccnc3)c2C#N)cc1 : 0.567

EC50 in this record for N#Cc1c(N)nc(SCC2COC2)c(C#N)c1-c1ccc(OC2COC2)cc1 : 0.0011

(1) N#Cc1c(SCCC(F)(F)F)nc(N2CCCC2)c(C#N)c1-c1ccc(OCCO)cc1
(2) N#Cc1c(SCc2cccnc2)nc(N2CC(F)C2)c(C#N)c1-c1ccc(OCCOC(F)F)cc1
Input line: Which item exceeds the other in EC50, 1 or 2 ? Kindly give the label for the entry you pick.
Output line: 1
